All figures here come from patent US7795261B2.

molecular target: NK3 (Homo sapiens, UniProt P29371); assay: Signal transduction (ST), intracellular Ca++ (FLIPR), NK3; type: cell-based; settings: read-out: pIC50 NK3 (converted)
Sequence (P29371 whole entry): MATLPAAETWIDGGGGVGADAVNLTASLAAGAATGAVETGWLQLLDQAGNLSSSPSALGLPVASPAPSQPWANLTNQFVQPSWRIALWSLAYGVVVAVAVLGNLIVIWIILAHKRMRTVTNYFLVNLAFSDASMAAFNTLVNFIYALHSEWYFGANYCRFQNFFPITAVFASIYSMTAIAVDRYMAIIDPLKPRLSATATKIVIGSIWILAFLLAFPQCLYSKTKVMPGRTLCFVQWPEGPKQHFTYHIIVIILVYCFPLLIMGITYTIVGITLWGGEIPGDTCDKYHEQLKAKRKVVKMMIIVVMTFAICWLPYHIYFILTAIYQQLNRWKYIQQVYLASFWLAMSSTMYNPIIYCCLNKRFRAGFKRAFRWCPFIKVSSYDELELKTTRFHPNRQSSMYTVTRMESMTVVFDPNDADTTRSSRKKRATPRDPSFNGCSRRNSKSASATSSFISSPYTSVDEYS
Metric: IC50 (nM)
Numeric answer only, unit nM assumed.

1. O=C(C1CCOC1)N1CCC(N2CCN(C3CCN(C(=O)c4cc(C(F)(F)F)cc(C(F)(F)F)c4)C(Cc4ccc(F)c(F)c4)C3)CC2)C1 (single isomer, unassigned) [Compound 285]
631
2. O=C(C1CC1)N1CCC(N2CCN(C3CCN(C(=O)c4cc(C(F)(F)F)cc(C(F)(F)F)c4)C(Cc4ccc(F)c(F)c4)C3)CC2)C1 (single isomer, unassigned) [Compound 252]
501

The record that follows has no IC50 shown yet.
Look at this compound and give its reported IC50. N#Cc1cccc(C(=O)N2CCC(N3CCN([C@H]4CCN(C(=O)c5cc(C(F)(F)F)cc(C(F)(F)F)c5)[C@H](Cc5ccccc5)C4)CC3)C2)c1 (stereo partly drawn) [Compound 12]
126
